What pKd was measured for each of the following?
target: T1, recombinant human IL-6 (human, UniProt P05231 30-212); test: SPR Biacore, purified Ab on Protein A chip, IL-6 analyte, 37 C
T1 construct: Bought protein
T1 sequence (P05231 30-212 limits assumed): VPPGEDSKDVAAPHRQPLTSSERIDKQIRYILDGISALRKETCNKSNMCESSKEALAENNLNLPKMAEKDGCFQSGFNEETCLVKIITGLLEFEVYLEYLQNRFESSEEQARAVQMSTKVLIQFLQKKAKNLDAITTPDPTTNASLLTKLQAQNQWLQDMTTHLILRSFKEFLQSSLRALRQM
Give bare numbers, as −log10 of the molar value.

{"BINDER": "anti-IL-6 antibody, heavy chain variant I (M34I, G66D, I108V) / light chain variant IV (M32L, M50A, N52S, M88Q) (antibody, V domains shown, See note of m39; also called M34I, G66D, I108V/ M32L, M50A, N52S, M88Q; I/IV) VH: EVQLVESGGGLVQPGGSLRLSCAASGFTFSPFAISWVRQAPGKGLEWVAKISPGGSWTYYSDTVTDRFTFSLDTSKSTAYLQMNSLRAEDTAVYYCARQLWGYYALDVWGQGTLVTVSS VL: DIQLTQSPSSLSASVGDRVTITCSASISVSYLYWYQQKPGKAPKLLIYDASSLASGVPSRFSGSGSGTDFTLTISSLQPEDFATYYCQQWSGYPYTFGQGTKVEIK", "pKd": 9.25}

# input for lookup
Prompt line: # get_value(readout='pKd', item= anti-IL-6 antibody, light chain M32L (heavy chain WT) (antibody, V domains shown, See note of m2; also called WT / M32L) VH: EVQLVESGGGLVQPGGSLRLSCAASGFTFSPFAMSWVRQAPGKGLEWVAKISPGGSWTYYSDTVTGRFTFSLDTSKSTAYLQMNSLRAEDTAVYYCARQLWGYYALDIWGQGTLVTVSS VL: DIQLTQSPSSLSASVGDRVTITCSASISVSYLYWYQQKPGKAPKLLIYDMSNLASGVPSRFSGSGSGTDFTLTISSLQPEDFATYYCMQWSGYPYTFGQGTKVEIK )
Response line: 9.40
